system: MDCK p60AmotL2-inducible + doxycycline (p60AmotL2 expressing); experiment: drug sensitivity score (DSS) from 5-dose viability curve (DSS (area-based score, 0 = no response)); higher = more sensitive (stronger viability inhibition); extreme values may be limits of the assay; settings: doxycycline: 10 ng/mL; 72 h
Decision: drug sensitivity score compared against 0.3; not below it gives yes (1), below it gives no (0).

[[record]]
compound = "CCCc1cc(C)[nH]c(=O)c1CNC(=O)c1cc(-c2ccnc(N3CCN(C)CC3)c2)cc2c1cnn2C(C)C [GSK343]"
class_name = "no (0)"

[[record]]
compound = "COc1cc2c(NC3CCN(C(C)C)CC3)nc(C3CCCCC3)nc2cc1OCCCN1CCCC1 [UNC0638]"
class_name = "yes (1)"

[[record]]
compound = "CNC(=O)c1cc(COc2nnc(Nc3ccc(Cl)cc3)c3ccoc23)ccn1 [Telatinib]"
class_name = "no (0)"

[[record]]
compound = "CCNc1nc(Nc2cc(F)c(C(=O)N3CCOCC3)cc2OC)ncc1C(F)(F)F [GNE-7915]"
class_name = "no (0)"

[[record]]
compound = "COc1nc(N)nc2c1ncn2[C@@H]1O[C@H](CO)[C@@H](O)[C@@H]1O [Nelarabine]"
class_name = "no (0)"

[[record]]
compound = "COc1c(OCCCN2CCOCC2)ccc2c1N=C(NC(=O)c1cnc(N)nc1)N1CCN=C21 [Copanlisib]"
class_name = "yes (1)"

[[record]]
compound = "Nc1cc(F)ccc1NC(=O)/C=C/c1cnn(C/C=C/c2ccccc2)c1 [RGFP966]"
class_name = "yes (1)"

[[record]]
compound = "CC(=O)c1cc2c(o1)C(=O)c1ccccc1C2=O [Napabucasin]"
class_name = "yes (1)"


----------
tested on: MDCK p60AmotL2-inducible + doxycycline (p60AmotL2 expressing); experiment: drug sensitivity score (DSS) from 5-dose viability curve (DSS (area-based score, 0 = no response)); higher = more sensitive (stronger viability inhibition); extreme values may be limits of the assay; conditions: doxycycline: 10 ng/mL; 72 h
recorded-endpoint: drug sensitivity score

[[record]]
smiles_input = "Cn1cc(-c2ccc(F)c(C(F)(F)F)c2)nc1C1CCN(c2ncnc3[nH]ncc23)CC1"
recorded_endpoint = "drug sensitivity score"
numeric_result = 3

[[record]]
smiles_input = "C[C@@H](C(=O)O)c1ccc(-c2ccccc2)c(F)c1"
recorded_endpoint = "drug sensitivity score"
numeric_result = 0

[[record]]
smiles_input = "CCS(=O)(=O)N1CCN(c2ccc(Nc3ncc(C(N)=O)c(NC4CC4)n3)cc2)CC1"
recorded_endpoint = "drug sensitivity score"
numeric_result = 0.2

[[record]]
smiles_input = "Cc1ccc(C(=O)Nc2cccc(C(F)(F)F)c2)cc1Nc1nc(-c2cccnc2)nc2c1cnn2C"
recorded_endpoint = "drug sensitivity score"
numeric_result = 0


----------
tested on: MDCK p60AmotL2-inducible + doxycycline (p60AmotL2 expressing); assay: drug sensitivity score (DSS) from 5-dose viability curve (DSS (area-based score, 0 = no response)); higher = more sensitive (stronger viability inhibition); extreme values may be limits of the assay; details: doxycycline: 10 ng/mL; 72 h
drug sensitivity score vs 0.3: at or above is 1, below is 0.

[[record]]
molecule = "CC(=O)Nc1ccc(C(=O)Nc2ccccc2N)cc1 [Tacedinaline]"
class_name = 0

[[record]]
molecule = "C=CC(=O)Nc1cc2c(Nc3ccc(F)c(Cl)c3)ncnc2cc1OCCCN1CCOCC1 [Canertinib]"
class_name = 1

[[record]]
molecule = "COc1c(C)cnc(Cn2cnc3c(Cl)nc(N)nc32)c1C [BIIB021]"
class_name = 1

[[record]]
molecule = "Nc1nc(OCc2cc(Br)cs2)c2[nH]cnc2n1 [Lomeguatrib]"
class_name = 0

[[record]]
molecule = "N.N.[Cl][Pt][Cl] [Cisplatin]"
class_name = 1

[[record]]
molecule = "O=C(O)C(=O)O.[NH-][C@@H]1CCCC[C@H]1[NH-].[Pt+2] [Oxaliplatin]"
class_name = 1

[[record]]
molecule = "O=C(Nc1ccncc1)C(=O)c1cn(Cc2ccc(Cl)cc2)c2ccccc12 [Indibulin]"
class_name = 1

[[record]]
molecule = "COc1cc2ncnc(Nc3cccc(Cl)c3F)c2cc1OC(=O)N1CCN(C)C[C@H]1C [AZD3759]"
class_name = 1

[[record]]
molecule = "CC(C)NC(=O)COc1cccc(-c2nc(Nc3ccc4[nH]ncc4c3)c3ccccc3n2)c1 [KD025]"
class_name = 0


----------
tested on: MDCK p60AmotL2-inducible + doxycycline (p60AmotL2 expressing); experiment: drug sensitivity score (DSS) from 5-dose viability curve (DSS (area-based score, 0 = no response)); higher = more sensitive (stronger viability inhibition); extreme values may be limits of the assay; details: doxycycline: 10 ng/mL; 72 h
# drug sensitivity score >= 10 gives True, anything below gives False

[[record]]
compound = "COc1cc([C@@H]2c3cc4c(cc3[C@@H](O[C@@H]3O[C@@H]5CO[C@@H](C)O[C@H]5[C@H](O)[C@H]3O)[C@H]3COC(=O)[C@H]23)OCO4)cc(OC)c1O [Etoposide]"
class_name = "False"

[[record]]
compound = "Cc1noc2c1-c1ccccc1C(c1ccc(Cl)cc1)=N[C@H]2CC(N)=O"
class_name = "True"

[[record]]
compound = "C[C@@H](Nc1cc(F)cc(F)c1)c1cc(C(=O)N(C)C)cc2c(=O)cc(N3CCOCC3)oc12"
class_name = "False"

[[record]]
compound = "Cn1ncc(Cl)c1-c1cc(C(=O)N[C@H](CN)Cc2cccc(F)c2)sc1Cl"
class_name = "False"

[[record]]
compound = "NC[C@@](O)(c1ccc(Cl)cc1)c1ccc(-c2cn[nH]c2)cc1"
class_name = "False"

[[record]]
compound = "Oc1ccc2c(c1)CC[C@H](c1ccccc1)[C@@H]2c1ccc(OCCN2CCCC2)cc1"
class_name = "False"

[[record]]
compound = "CN1CCN(CCOc2cc(OC3CCOCC3)c3c(Nc4c(Cl)ccc5c4OCO5)ncnc3c2)CC1"
class_name = "True"

[[record]]
compound = "Cn1cc(CNCC2CCN(c3ncc(C(=O)NO)cn3)CC2)c2ccccc21"
class_name = "True"


----------
Documented drug sensitivity score across a set of compounds
tested on: MDCK p60AmotL2-inducible + doxycycline (p60AmotL2 expressing); experiment: drug sensitivity score (DSS) from 5-dose viability curve (DSS (area-based score, 0 = no response)); higher = more sensitive (stronger viability inhibition); extreme values may be limits of the assay; settings: doxycycline: 10 ng/mL; 72 h
recorded-endpoint: drug sensitivity score

[[record]]
compound = "Cc1nn(C)c(COc2ccc(N3CCN(S(=O)(=O)N(C)C)CC3)cc2)c1-c1cccc2c(CCCOc3cccc4ccccc34)c(C(=O)O)n(CCN3CCOCC3)c12"
numeric_result = 5.3

[[record]]
compound = "CN(C)C(=N)NC(=N)N"
numeric_result = 0

[[record]]
compound = "Nc1cccc2c1C(=O)N(C1CCC(=O)NC1=O)C2=O (centres undefined) [Pomalidomide]"
numeric_result = 0

[[record]]
compound = "O=C1CCc2c(Oc3ccc4c(c3)[C@@H]3[C@H](O4)[C@H]3c3nc4cc(C(F)(F)F)ccc4[nH]3)ccnc2N1"
numeric_result = 6.6


----------
tested on: MDCK p60AmotL2-inducible + doxycycline (p60AmotL2 expressing); test: drug sensitivity score (DSS) from 5-dose viability curve (DSS (area-based score, 0 = no response)); higher = more sensitive (stronger viability inhibition); extreme values may be limits of the assay; conditions: doxycycline: 10 ng/mL; 72 h
Documented drug sensitivity score across a set of molecules
recorded-endpoint: drug sensitivity score

[[record]]
molecule = "Cn1cc(-c2cnn3c(N)c(Br)c([C@@H]4CCCNC4)nc23)cn1 [MK-8776]"
numeric_result = 0

[[record]]
molecule = "CN1CCN(c2ccc(C(=O)Nc3n[nH]c4ccc(Cc5cc(F)cc(F)c5)cc34)c(NC3CCOCC3)c2)CC1 [Entrectinib]"
numeric_result = 0.6

[[record]]
molecule = "NS(=O)(=O)NCCNc1nonc1/C(=N/O)Nc1ccc(F)c(Br)c1 [Epacadostat]"
numeric_result = 0

[[record]]
molecule = "CNCc1ccc(-c2[nH]c3cc(F)cc4c3c2CCNC4=O)cc1 [Rucaparib]"
numeric_result = 0

[[record]]
molecule = "CC(C)[C@H](C(=O)Nc1ccc(C(=O)NO)cc1)c1ccccc1 [AR-42]"
numeric_result = 14

[[record]]
molecule = "CN(Cc1cnc2nc(N)nc(N)c2n1)c1ccc(C(=O)N[C@@H](CCC(=O)O)C(=O)O)cc1 [Methotrexate]"
numeric_result = 22.5

[[record]]
molecule = "COc1cc(OC)c(/C=C/S(=O)(=O)Cc2ccc(OC)c(NCC(=O)O)c2)c(OC)c1 [Rigosertib]"
numeric_result = 26.8

[[record]]
molecule = "CC(C)C[C@H](NC(=O)[C@H](Cc1ccccc1)NC(=O)c1cnccn1)B(O)O [Bortezomib]"
numeric_result = 25

[[record]]
molecule = "Nc1nc(Nc2ccc3c(c2)CC[C@@H](N2CCCC2)CC3)nn1-c1cc2c(nn1)-c1ccccc1CCC2 [BGB324]"
numeric_result = 5.8

[[record]]
molecule = "Oc1nc(-c2ccc(C(F)(F)F)cc2)nc2c1CSCC2 [XAV-939]"
numeric_result = 0

[[record]]
molecule = "CC(C)(O)CNc1nc(Nc2ccnc(C(F)(F)F)c2)nc(-c2cccc(C(F)(F)F)n2)n1 [Enasidenib]"
numeric_result = 0

[[record]]
molecule = "CS(=O)(=O)c1ccc(-c2cnc(N)c(C(=O)Nc3ccccc3)n2)cc1 [VE-821]"
numeric_result = 0

[[record]]
molecule = "O=C(c1ccc(C(=O)N2CCC(N3CCCC3)CC2)c(Nc2ccccc2)c1)N1CCC(N2CCCC2)CC1 [UNC1215]"
numeric_result = 0

[[record]]
molecule = "COc1cccc2c1c(O)c(C(=O)N(C)c1ccc(C(F)(F)F)cc1)c(=O)n2C [Tasquinimod]"
numeric_result = 0

[[record]]
molecule = "C=CC(=O)Nc1cc(Nc2nccc(-c3cn(C)c4ccccc34)n2)c(OC)cc1N(C)CCN(C)C [Osimertinib]"
numeric_result = 10.9

[[record]]
molecule = "Cn1cc(C2=C(c3cn(C4CCN(Cc5ccccn5)CC4)c4ccccc34)C(=O)NC2=O)c2ccccc21 [Enzastaurin]"
numeric_result = 0

[[record]]
molecule = "Cc1nc(Nc2ncc(C(=O)Nc3c(C)cccc3Cl)s2)cc(N2CCN(CCO)CC2)n1 [Dasatinib]"
numeric_result = 13.7

